Parameter: IC50. Scope: all listed entries.
System: T47D cells
Assay: Cell-based assay: anti-proliferative activity, Cell Counting Kit-8, 72 hours (T47D)
Details: Homo sapiens, T47D, 72 h
Where a name gives a salt, the structure may show the parent alone.
Report the figure in µM without appending any unit label.

Please review the entries below; each comes with its answer.
CC(=O)c1cnc2ccc(-c3cc(Cl)c(O)c(Cl)c3)cc2c1Nc1ccc(S(=O)(=O)N2CCN(C)CC2)cc1 [Example 887, hydrochloride]
1.3
CC(=O)c1cnc2ccc(-c3cc(F)c(O)c(Cl)c3)cc2c1Nc1cnn(C2CCN(C)C2)c1 (stereo not shown) [Example 813, dihydrochloride]
0.07
CNC1CCN(c2ccc(Nc3c(C(C)=O)cnc4ccc(-c5cc(Cl)c(O)c(Cl)c5)cc34)cn2)C1 (stereo not shown) [Example 788, trihydrochloride]
0.071
CN(C)C1CCN(c2ccc(Nc3c(C(=O)C4CC4)cnc4ccc(-c5cc(Cl)c(O)c(Cl)c5)cc34)cn2)C1 (stereo not shown) [Example 690]
0.25

Notebook entry, T47D cells assay: IC50 of COc1cc(-c2ccc3ncc(C(=O)C4CC4)c(Nc4ccc(N5CCNCC5)cn4)c3c2)cc(Cl)c1O [Example 528, hydrochloride] = ?
1.8

Form: Entry = CN1CCN(Cc2ccc(Nc3c(C(=O)C4CC4)cnc4ccc(-c5cc(Cl)c(O)c(Cl)c5)cc34)cc2)CC1 [Example 397] | System = T47D cells | IC50 = ____
0.33

Request - read-out IC50 | tested on T47D cells | compound COc1cc(-c2cc(F)c3ncc(C(=O)C4CC4)c(N[C@H]4CC[C@H](N)CC4)c3c2)cc(Cl)c1O [Example 564]
0.43

====

Target: MELK (Homo sapiens)
Sequence (Q14680 whole entry, looked up): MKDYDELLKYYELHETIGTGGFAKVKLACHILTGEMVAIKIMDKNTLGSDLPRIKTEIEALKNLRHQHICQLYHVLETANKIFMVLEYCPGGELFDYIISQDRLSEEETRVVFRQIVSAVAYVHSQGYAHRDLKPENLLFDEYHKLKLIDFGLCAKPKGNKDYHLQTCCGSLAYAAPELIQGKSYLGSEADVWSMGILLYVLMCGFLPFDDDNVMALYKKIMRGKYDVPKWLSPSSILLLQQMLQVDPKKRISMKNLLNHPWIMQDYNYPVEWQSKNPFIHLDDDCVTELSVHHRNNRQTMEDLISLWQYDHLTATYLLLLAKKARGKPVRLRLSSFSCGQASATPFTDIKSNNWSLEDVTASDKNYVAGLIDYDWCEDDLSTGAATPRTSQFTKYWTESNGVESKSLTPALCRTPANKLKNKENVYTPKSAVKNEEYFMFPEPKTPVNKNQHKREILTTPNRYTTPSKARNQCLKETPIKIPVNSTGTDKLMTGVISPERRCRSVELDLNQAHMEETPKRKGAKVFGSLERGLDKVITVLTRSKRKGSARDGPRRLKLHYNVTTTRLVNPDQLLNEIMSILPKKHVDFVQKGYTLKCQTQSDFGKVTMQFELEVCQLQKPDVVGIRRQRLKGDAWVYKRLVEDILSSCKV
Assay: Kinase assay: MELK activity, phosphorylation of FITC-labeled histone H3 peptide measured by IMAP fluorescence polarization
Assay type: biochemical
Conditions: read-out: IC50 (μM) (kinase assay)
Structures can show the parent of a compound that is named as a salt.
# maps each entry to its IC50
Numeric only. Scale: µM

Solved cases (2 shown):
CN[C@H]1CC[C@H](Nc2c(C(C)=O)cnc3ccc(-c4cc(Cl)c(O)c(OC)c4)cc23)CC1 [Example 542]
0.0043
COc1cc(-c2ccc3ncc(C(=O)C4CC4)c(Nc4ccc(N5CCNCC5)cn4)c3c2)cc(Cl)c1O [Example 528, hydrochloride]
0.0044

Quick check: IC50 of NC1CCN(c2ccc(Nc3c(C(=O)C4CC4)cnc4ccc(-c5cc(Cl)c(O)c(Cl)c5)cc34)cn2)CC1 [Example 548] ?
0.002

Bench note: what IC50 did COc1cc(-c2ccc3ncc(C(=O)C4CC4)c(C4=CCNCC4)c3c2)cc(Cl)c1O [Example 516] show?
0.0044

Could you tell me which IC50 is on file for CC(=O)c1cnc2ccc(-c3cc(Cl)c(O)c(Cl)c3)cc2c1N[C@H]1CC[C@H](CN2CCNCC2)CC1 [Example 772, dihydrochloride] ?
0.0021

Quick one: IC50 of CC(=O)c1cnc2ccc(-c3cc(F)c(O)c(Cl)c3)cc2c1N[C@H]1CC[C@H](CN2CCC[C@@H]2CO)CC1 [Example 808, hydrochloride] ?
0.0065

Fill in the blank: the reported IC50 of CC(=O)c1cnc2ccc(-c3cc(Cl)c(O)c(Cl)c3)cc2c1Nc1cccc(CCN2CCCC2)c1 [Example 801] is ____.
0.004

From: patent US9120749B2
